Measured Selectivity A1/A2a, listed per entry for reference.
Molecular target: human adenosine A2a receptor (Homo sapiens)
Construct: expressed in transfected cells; host or cells: CHO cells, semliki forest virus expression system; membrane preparation
Experiment: Human adenosine A2a receptor radioligand binding assay ([125I]-AB-MECA, CHO cell membranes)
Conditions: ratio obtained by dividing KiHA1 by KiHA2A
reported.property: Selectivity A1/A2a

- molecule: "COc1ccc(-c2ccccc2)n2nc(NC(=O)c3ccc(F)cc3)nc12 [Example 4]"
  assay.result: 19.6
- molecule: "COc1cccc(-c2ccc(OC)c3nc(NC(=O)c4ccc(C)s4)nn23)c1 [Example 27]"
  assay.result: 16.5
- molecule: "COc1ccc(-c2ccccc2)n2nc(NC(=O)c3cccc(Br)c3)nc12 [Example 8]"
  assay.result: 21.1
- molecule: "COc1ccc(-c2ccccc2F)n2nc(NC(=O)c3ccc(F)cc3)nc12 [Example 32]"
  assay.result: 24.6
- molecule: "COc1ccc(-c2cccs2)n2nc(NC(=O)c3cccc(CCl)c3)nc12 [Example 20]"
  assay.result: 15.9
- molecule: "COc1ccc(-c2ccsc2)n2nc(NC(=O)c3ccc(F)cc3)nc12 [Example 33]"
  assay.result: 12.3
- molecule: "COc1ccc(-c2cccs2)n2nc(NC(=O)c3ccccc3)nc12 [Example 12]"
  assay.result: 19.3
- molecule: "COc1ccc(-c2ccsc2)n2nc(NC(=O)c3ccc(C)s3)nc12 [Example 29]"
  assay.result: 24.2
- molecule: "COc1ccc(C(=O)Nc2nc3c(OC)ccc(-c4cccs4)n3n2)cc1 [Example 16]"
  assay.result: 14.2
- molecule: "COc1ccc(C(=O)Nc2nc3c(OC)ccc(-c4ccccc4)n3n2)cc1 [Example 7]"
  assay.result: 20.8
- molecule: "COc1ccc(-c2ccc(Cl)cc2)n2nc(NC(=O)c3ccc(C)s3)nc12 [Example 26]"
  assay.result: 11.1
- molecule: "CCOc1cccc(-c2ccc(OC)c3nc(NC(=O)c4ccc(F)cc4)nn23)c1 [Example 34]"
  assay.result: 11.2
- molecule: "COc1cccc(C(=O)Nc2nc3c(OC)ccc(-c4cccs4)n3n2)c1 [Example 19]"
  assay.result: 24.6

###

Measured Selectivity A1/A2a, listed per entry for reference.
Target: human adenosine A2a receptor (Homo sapiens, UniProt P29274)
Construct: expressed in transfected cells; host or cells: CHO cells, semliki forest virus expression system; membrane preparation
Sequence (P29274 whole entry): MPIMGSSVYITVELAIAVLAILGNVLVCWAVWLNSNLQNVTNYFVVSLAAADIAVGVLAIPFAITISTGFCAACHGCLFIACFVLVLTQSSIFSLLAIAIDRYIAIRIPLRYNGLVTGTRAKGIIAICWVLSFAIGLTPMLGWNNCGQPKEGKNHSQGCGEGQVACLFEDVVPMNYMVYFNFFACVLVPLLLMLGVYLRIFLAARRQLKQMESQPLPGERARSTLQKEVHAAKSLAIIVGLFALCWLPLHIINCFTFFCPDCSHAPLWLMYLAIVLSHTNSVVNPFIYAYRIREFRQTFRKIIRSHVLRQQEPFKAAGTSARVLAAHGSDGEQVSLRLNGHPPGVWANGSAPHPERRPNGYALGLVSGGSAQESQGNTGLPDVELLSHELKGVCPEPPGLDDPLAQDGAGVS
Test: Human adenosine A2a receptor radioligand binding assay ([125I]-AB-MECA, CHO cell membranes)
Conditions: ratio obtained by dividing KiHA1 by KiHA2A

- record.smiles: "COc1ccc(-c2cccs2)n2nc(NC(=O)c3ccccc3Br)nc12"
  Selectivity A1/A2a: 12.0
- record.smiles: "CCc1ccc(C(=O)Nc2nc3c(OC)ccc(-c4ccccc4)n3n2)cc1"
  Selectivity A1/A2a: 11.5
- record.smiles: "COc1ccc(-c2ccccc2)n2nc(NC(=O)c3ccc(C)s3)nc12"
  Selectivity A1/A2a: 43.4
- record.smiles: "COc1ccc(-c2ccccc2)n2nc(NC(=O)c3ccc(Br)cc3)nc12"
  Selectivity A1/A2a: 22.4
- record.smiles: "COc1ccc(-c2cccc(F)c2)n2nc(NC(=O)c3ccc(C)s3)nc12"
  Selectivity A1/A2a: 10.6
- record.smiles: "COc1ccc(-c2ccc(OC)c3nc(NC(=O)c4ccc(C)s4)nn23)cc1"
  Selectivity A1/A2a: 36.5
- record.smiles: "COc1cccc(C(=O)Nc2nc3c(OC)ccc(-c4ccccc4)n3n2)c1"
  Selectivity A1/A2a: 23.4
- record.smiles: "COc1ccc(-c2cccs2)n2nc(NC(=O)c3ccccc3Cl)nc12"
  Selectivity A1/A2a: 9.8
- record.smiles: "COc1ccc(-c2ccccc2)n2nc(NC(=O)c3cccc(F)c3)nc12"
  Selectivity A1/A2a: 11.6

###

Biological target: human adenosine A1 receptor (Homo sapiens)
Construct: membrane preparation
Sequence (P30542 whole entry): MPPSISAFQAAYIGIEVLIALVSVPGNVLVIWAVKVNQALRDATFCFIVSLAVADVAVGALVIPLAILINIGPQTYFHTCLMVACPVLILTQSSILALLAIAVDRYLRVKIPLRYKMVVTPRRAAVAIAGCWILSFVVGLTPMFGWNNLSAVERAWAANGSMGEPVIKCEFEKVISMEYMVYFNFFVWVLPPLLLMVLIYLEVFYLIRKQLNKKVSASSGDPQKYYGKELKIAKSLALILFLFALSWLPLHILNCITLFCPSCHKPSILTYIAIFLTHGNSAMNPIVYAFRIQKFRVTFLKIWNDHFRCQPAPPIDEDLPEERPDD
Test: Human adenosine A1 receptor radioligand binding assay ([3H]-DPCPX, SPA, CHO cell membranes)
Settings: recombinant human A1 receptor expressed in CHO cells; [3H]-DPCPX 0.6 nM; Ki from IC50 by Cheng-Prussoff equation; read-out: hA1 Ki
Description: Human Adenosine A^1 Receptor The gene encoding human adenosinie A1 receptor was recombinantly introduced and expressed in chinese hamster ovary (CHO) cells using the semliki forest virus expression system. […] Assay plates were incubated for 1 hour at room temperature before centrifugation and then bound ligand determined using a Packard Topcount scintillation counter. IC50 values were calculated using a non-linear curve fitting program and Ki values calculated using the Cheng-Prussoff equation. […]
pKi: −log10 of the molar value.
Measured pKi, listed per entry for reference.
reported.property: pKi

- record.smiles: "COc1ccc(-c2ccccc2F)n2nc(NC(=O)c3ccc(C)s3)nc12"
  target.under.test: "human adenosine A1 receptor (Homo sapiens)"
  assay.result: 5.58
- record.smiles: "COc1ccc(-c2ccccc2)n2nc(NC(=O)c3ccc(Br)cc3)nc12"
  target.under.test: "human adenosine A1 receptor (Homo sapiens)"
  assay.result: 5.64
- record.smiles: "COc1ccc(-c2ccccc2)n2nc(NC(=O)c3cccc(Br)c3)nc12"
  target.under.test: "human adenosine A1 receptor (Homo sapiens)"
  assay.result: 5.54
- record.smiles: "COc1ccc(-c2cccs2)n2nc(NC(=O)c3ccc(Cl)cc3)nc12"
  target.under.test: "human adenosine A1 receptor (Homo sapiens)"
  assay.result: 5.54
- record.smiles: "COc1ccc(-c2ccccc2)n2nc(NC(=O)c3cccc(F)c3)nc12"
  target.under.test: "human adenosine A1 receptor (Homo sapiens)"
  assay.result: 5.69

###

Molecular target: human adenosine A2a receptor (Homo sapiens)
Construct: expressed in transfected cells; host or cells: CHO cells, semliki forest virus expression system; membrane preparation
Test: Human adenosine A2a receptor radioligand binding assay ([125I]-AB-MECA, CHO cell membranes)
Conditions: ratio obtained by dividing KiHA1 by KiHA2A
Measured Selectivity A1/A2a, listed per entry for reference.

- record.smiles: "COc1ccc(-c2ccccc2)n2nc(NC(=O)c3cccc(Cl)c3)nc12"
  Selectivity A1/A2a: 15.8
- record.smiles: "CCOc1cccc(-c2ccc(OC)c3nc(NC(=O)c4ccc(C)s4)nn23)c1"
  Selectivity A1/A2a: 18.6
- record.smiles: "CCc1ccc(C(=O)Nc2nc3c(OC)ccc(-c4cccs4)n3n2)cc1"
  Selectivity A1/A2a: 24.2
- record.smiles: "COc1ccc(-c2ccccc2F)n2nc(NC(=O)c3ccc(C)s3)nc12"
  Selectivity A1/A2a: 19.5
- record.smiles: "COc1ccc(-c2cccs2)n2nc(NC(=O)c3cccc(Cl)c3)nc12"
  Selectivity A1/A2a: 17.4

###

Target: human adenosine A2a receptor (Homo sapiens)
Construct: membrane preparation
Assay: Human adenosine A2a receptor radioligand binding assay ([125I]-AB-MECA, CHO cell membranes)
Conditions: recombinant human A2a receptor expressed in CHO cells; Ki from IC50 by Cheng-Prussoff equation; read-out: hA2a Ki
pKi: −log10 of the molar value.
reported.property: pKi

- record.smiles: "CCc1ccc(C(=O)Nc2nc3c(OC)ccc(-c4cccs4)n3n2)cc1"
  assay.result: 6.87
- record.smiles: "CCOC(=O)c1cccc(-c2ccc(OC)c3nc(NC(=O)c4ccc(F)cc4)nn23)c1"
  assay.result: 6.32
- record.smiles: "COc1ccc(-c2ccccc2)n2nc(NC(=O)c3cccc(F)c3)nc12"
  assay.result: 6.76
- record.smiles: "COc1ccc(-c2cccs2)n2nc(NC(=O)c3cccc(CCl)c3)nc12"
  assay.result: 6.68
- record.smiles: "CCc1ccc(C(=O)Nc2nc3c(OC)ccc(-c4ccccc4)n3n2)cc1"
  assay.result: 6.76
- record.smiles: "CCOc1cccc(-c2ccc(OC)c3nc(NC(=O)c4ccc(C)s4)nn23)c1"
  assay.result: 7.14
- record.smiles: "COc1ccc(-c2ccc(OC)c3nc(NC(=O)c4ccc(F)cc4)nn23)cc1"
  assay.result: 6.46
- record.smiles: "COc1ccc(-c2ccc(C)cc2)n2nc(NC(=O)c3ccc(C)s3)nc12"
  assay.result: 6.35
- record.smiles: "COc1ccc(-c2ccc(SC)cc2)n2nc(NC(=O)c3ccc(C)s3)nc12"
  assay.result: 6.54
- record.smiles: "COc1ccc(-c2cccs2)n2nc(NC(=O)c3ccc(Br)cc3)nc12"
  assay.result: 7.20
- record.smiles: "COc1ccc(-c2cccs2)n2nc(NC(=O)c3ccccc3Cl)nc12"
  assay.result: 6.64
- record.smiles: "COc1ccc(-c2ccc3[nH]ccc3c2)n2nc(NC(=O)c3ccc(C)s3)nc12"
  assay.result: 6.07
- record.smiles: "COc1ccc(-c2ccccc2)n2nc(NC(=O)c3cccc(Br)c3)nc12"
  assay.result: 6.86
- record.smiles: "COc1cccc(-c2ccc(OC)c3nc(NC(=O)c4ccc(C)s4)nn23)c1"
  assay.result: 6.97
- record.smiles: "COc1ccc(-c2ccc(Cl)cc2)n2nc(NC(=O)c3ccc(F)cc3)nc12"
  assay.result: 6.21
- record.smiles: "COc1ccc(-c2ccccc2Cl)n2nc(NC(=O)c3ccc(C)s3)nc12"
  assay.result: 6.28
- record.smiles: "COc1ccc(C(=O)Nc2nc3c(OC)ccc(-c4ccccc4)n3n2)cc1"
  assay.result: 6.64
- record.smiles: "COc1ccc(-c2ccccc2)n2nc(NC(=O)c3ccc(Br)cc3)nc12"
  assay.result: 6.99

The reported numbers originate from patent US6514989B1.
